System: HeLa cells
testSummary: Cell cycle assay in HeLa cells
Type: cell-based, human
measurementParameters: HeLa cells, 150 nM oligomeric compound, 24 hours, relative to untreated control (UTC = 100)
In the oligonucleotide strings, read from the 5' end, every base follows the letter of its sugar. An asterisk marks phosphorothioate; unmarked linkages are phosphodiester. Other units and linkages are bracketed, terminal groups are in braces. A string of capitals states the bases alone. e = 2'-O-(2-methoxyethyl) (MOE); [5mC] = 5-methylcytosine; d = 2'-deoxy (DNA)
# note: boundary value 80% maps to NOT MET; % cells in cell cycle phase S below it maps to MET

Study these solved cases before continuing.
- substance: "327911 (antisense eG*e[5mC]*eT*eA*e[5mC]*e[5mC]*eT*eG*e[5mC]*eA*e[5mC]*eT*eG*eT*eA*eA*eG*e[5mC]*eA*e[5mC]*eT*eT*eT*eT) [compound 327911]"
  categoryLabel: "MET"
- substance: "327877 (antisense e[5mC]*eG*e[5mC]*e[5mC]*eA*eA*eT*eA*eT*eT*eT*eA*e[5mC]*eG*eT*eG*e[5mC]*eT*eG*e[5mC]*eT*eA) [compound 327877]"
  categoryLabel: "MET"
- substance: "327956 (antisense e[5mC]*eA*e[5mC]*eA*eG*eT*eT*eG*e[5mC]*e[5mC]*eA*eG*e[5mC]*eT*eG*eA*eG*eA*eT*eT*eA) [compound 327956]"
  categoryLabel: "MET"

query: hey, is % cells in cell cycle phase S for 327907 (antisense eA*eG*e[5mC]*e[5mC]*eT*eA*eT*e[5mC]*e[5mC]*eT*eG*eG*eA*eT*eT*eA*e[5mC]*eT*eT*eG*eA*eA) [compound 327907] lower than 80% or not?
result: MET

query: Lab note: confirm whether the reported % cells in cell cycle phase S for this substance is below 80%, equality not counting. substance: 327892 (antisense eA*e[5mC]*eT*eT*eT*e[5mC]*eG*eG*eT*eT*eA*eT*e[5mC]*eT*eA*eG*e[5mC]*eT*eT*eT*eA) [compound 327892]
result: NOT MET

query: I'd appreciate it if you could check whether 328707 (eG*e[5mC]*eA*eA*e[5mC]*dA*dG*dG*d[5mC]*d[5mC]*dT*d[5mC]*dA*dA*dT*eA*eT*e[5mC]*eT*eT) [compound 328707] has % cells in cell cycle phase S smaller than 80%.
result: NOT MET

query: Quick check: % cells in cell cycle phase S of 341788 (antisense AGCCAAGCTCAGACGGATCCGA; all 2'-MOE, all phosphorothioate, methylation of C not given here) [compound 341788] under 80%?
result: MET
